Recorded values, source patent US7119073B2.

Biological target: NS3 protease domain complexed to a modified form of the NS4A peptide (Pep4AK) (Hepatitis C virus genotype 1b, UniProt P26663)
Construct: NS3 protease domain (residues 1027–1206 of the HCV polyprotein)
Sequence (P26663 1027-1206, other chains not shown): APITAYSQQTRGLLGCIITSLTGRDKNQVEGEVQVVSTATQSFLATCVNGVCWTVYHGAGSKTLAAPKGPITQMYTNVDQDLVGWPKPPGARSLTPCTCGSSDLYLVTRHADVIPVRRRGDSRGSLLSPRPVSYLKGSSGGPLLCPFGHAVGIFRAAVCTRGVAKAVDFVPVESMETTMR
Experiment: HCV NS3 protease domain/NS4A cofactor peptide assay (Assay B)
Assay type: biochemical
Settings: Table 1; NS3 protease domain/Pep4AK, 4AB peptide substrate; read-out: Assay B
pIC50: −log10 of the molar value.
Assignment: determine reported pIC50 for the given compounds.

Recorded results for 2 compounds are shown here.
# compound, pIC50
measured = [
    ("CC(C)COC(=O)NC(CCC(=O)O)C(=O)NC(CC(C)C)C(=O)NC(CS)C(=O)NCCc1ccccc1 (stereo not shown)", "> 4.00"),
    ("CC(C)COC(=O)NC(CCC(=O)O)C(=O)NC(CC(C)C)C(=O)NC(CS)C(=O)NCC1(c2ccccc2)CCC1 (stereo not shown)", "> 4.00"),
]

Batch request: pIC50 per item, same order as input.
1. CC(C)CCOC(=O)NC(C(=O)NC(CC(C)C)C(=O)NC(CS)C(=O)NCCc1ccc(C(=O)O)cc1Cl)C(C)C (stereo not shown)
2. CC(C)C[C@H](NC(=O)[C@@H](NC(=O)OCc1ccc(C(=O)O)cc1)C(C)C)C(=O)N[C@@H](CS)C(=O)NCCc1ccccc1
3. CC(C)COC(=O)NC(CCC(=O)O)C(=O)NC(CC(C)C)C(=O)NC(CS)C(=O)NCCc1ccc(C(=O)O)cc1F (stereo not shown)
4. COC(=O)Cc1ccc(CCNC(=O)C(CS)NC(=O)C(CC(C)C)NC(=O)C(CCC(=O)O)NC(=O)OCC(C)C)cc1 (stereo not shown)
5. CC(C)COC(=O)NC(CCC(=O)O)C(=O)NC(CC(C)C)C(=O)NC(CS)C(=O)NCCc1c[nH]c2ccccc12 (stereo not shown)
6. CC(C)COC(=O)NC(C(=O)NC(CC(C)C)C(=O)NC(CC(F)F)C(=O)NCCc1ccc(C(=O)O)cc1Cl)C(C)C (stereo not shown)
7. COC(=O)c1ccc(CCNC(=O)C(CS)NC(=O)C(CC(C)C)NC(=O)C(CCC(=O)O)NC(=O)OCC(C)C)c(F)c1 (stereo not shown)

-- reply
1. > 5.00
2. > 4.00
3. > 6.00
4. > 4.00
5. > 4.00
6. > 5.00
7. > 4.00

Batch request: pIC50 per item, same order as input.
1. CC(C)COC(=O)NC(C(=O)NC(CC(C)C)C(=O)NC(CS)C(=O)NCCc1ccc(C(=O)O)cc1)C(C)C (stereo not shown)
2. CC(C)COC(=O)NC(CCC(=O)O)C(=O)NC(CC(C)C)C(=O)NC(CS)C(=O)NCCc1c(Cl)cccc1Cl (stereo not shown)
3. COC(=O)CCc1ccc(CCNC(=O)C(CS)NC(=O)C(CC(C)C)NC(=O)C(CCC(=O)O)NC(=O)OCC(C)C)cc1 (stereo not shown)
4. COc1ccc(CCNC(=O)C(CS)NC(=O)C(CC(C)C)NC(=O)C(CCC(=O)O)NC(=O)OCC(C)C)cc1 (stereo not shown)
5. CC(C)COC(=O)NC(CCC(=O)O)C(=O)NC(CC(C)C)C(=O)NC(CS)C(=O)NCCc1cccc(Oc2ccccc2)c1 (stereo not shown)

-- reply
["> 5.00", "> 5.00", "> 4.00", "> 4.00", "> 4.00"]

Batch request: pIC50 per item, same order as input.
1. CC(C)C[C@H](NC(=O)[C@@H](NC(=O)OCC1CCCC1)C(C)C)C(=O)N[C@@H](CS)C(=O)NCCc1ccc(C(=O)O)cc1Cl
2. COC(=O)c1ccc(CCNC(=O)C(CS)NC(=O)C(CC(C)C)NC(=O)C(CCC(=O)O)NC(=O)OCC(C)C)cc1 (stereo not shown)
3. CC(C)COC(=O)NC(CCC(=O)O)C(=O)NC(CC(C)C)C(=O)NC(CS)C(=O)NCCc1ccc(Cl)c(Cl)c1 (stereo not shown)
4. CC(C)COC(=O)N[C@@H](CCC(=O)O)C(=O)N[C@@H](CC(C)C)C(=O)N[C@@H](CS)C(=O)NCC(CC(=O)O)c1ccc(Cl)cc1 (stereo partly shown)
5. COc1ccccc1CCNC(=O)C(CS)NC(=O)C(CC(C)C)NC(=O)C(CCC(=O)O)NC(=O)OCC(C)C (stereo not shown)
6. CC(C)COC(=O)N[C@@H](CCC(=O)O)C(=O)N[C@@H](CC(C)C)C(=O)N[C@@H](CS)C(=O)NCCc1ccc(/C=C/C(=O)O)cc1

-- reply
1. > 5.00
2. > 4.00
3. > 4.00
4. > 4.00
5. > 4.00
6. > 5.00

Batch request: pIC50 per item, same order as input.
1. Cc1ccc(CCNC(=O)C(CS)NC(=O)C(CC(C)C)NC(=O)C(CCC(=O)O)NC(=O)OCC(C)C)cc1 (stereo not shown)
2. CC(C)CC(NC(=O)C(CCC(=O)O)NC(=O)OC(C)(C)C)C(=O)NC(CC(F)F)C(=O)NCCc1ccccc1 (stereo not shown)
3. CC(C)COC(=O)N[C@@H](CCC(=O)O)C(=O)N[C@@H](CC(C)C)C(=O)N[C@@H](CS)C(=O)NCC1(c2ccccc2)CC1
4. CC(C)CC(NC(=O)C(NC(=O)OC1CCS(=O)(=O)CC1)C(C)C)C(=O)NC(CS)C(=O)NCCc1ccc(C(=O)O)cc1Cl (stereo not shown)
5. CC(C)COC(=O)N[C@@H](CCC(=O)O)C(=O)N[C@@H](CC(C)C)C(=O)N[C@@H](CS)C(=O)NCCc1ccsc1

-- reply
1: > 4.00; 2: > 4.00; 3: > 4.00; 4: > 4.00; 5: > 5.00

###

Assignment: determine reported IC50 for the given compounds.
Molecular target: NS3 protease domain complexed to a modified form of the NS4A peptide (Pep4AK) (Hepatitis C virus genotype 1b, UniProt P26663)
Construct: NS3 protease domain (residues 1027–1206 of the HCV polyprotein)
Experiment: HCV NS3 protease domain/NS4A cofactor peptide assay (Assay B)
Assay type: biochemical
Settings: Table 1; NS3 protease domain/Pep4AK, 4AB peptide substrate; read-out: Assay B
Where a SMILES comes first, the peptide text is derived from it. The star is where a group is joined. NHPhenethyl = c1ccc(CCN*)cc1; Cbz = O=C(OCc1ccccc1)*

Recorded results for 10 compounds are shown here.
# compound, quantity measured, assay result
measured = [
    ("CC(C)COC(=O)N[C@@H](CCC(=O)O)C(=O)N[C@@H](CC(C)C)C(=O)N[C@@H](CS)C(=O)NC[C@H](C)c1ccccc1", "IC50", "< 100 µM"),
    ("CC(C)COC(=O)NC(CCC(=O)O)C(=O)NC(CC(C)C)C(=O)NC(CS)C(=O)NCCc1ccccc1OCc1ccccc1 (stereo not shown)", "IC50", "< 100 µM"),
    ("COc1ccc(CCNC(=O)C(CS)NC(=O)C(CC(C)C)NC(=O)C(CCC(=O)O)NC(=O)OCc2ccccc2)cc1 (stereo not shown)", "IC50", "< 100 µM"),
    ("CC(C)C[C@H](NC(=O)[C@H](CCC(=O)O)NC(=O)OCc1ccccc1)C(=O)N[C@@H](CS)C(=O)NCCc1ccccc1 [Compound 101] (Cbz-Glu-Leu-Cys-NHPhenethyl)", "IC50", "< 100 µM"),
    ("CC(C)COC(=O)NC(CCC(=O)O)C(=O)NC(CC(C)C)C(=O)NC(CS)C(=O)NCCc1ccc(O)cc1 (stereo not shown)", "IC50", "< 100 µM"),
    ("CC(C)COC(=O)NC(CCC(=O)O)C(=O)NC(CC(C)C)C(=O)NC(CS)C(=O)NCCc1ccc(CC(=O)O)cc1 (stereo not shown)", "IC50", "< 10 µM"),
    ("COC(=O)c1cccc(CCNC(=O)C(CS)NC(=O)C(CC(C)C)NC(=O)C(CCC(=O)O)NC(=O)OCC(C)C)c1 (stereo not shown)", "IC50", "< 100 µM"),
    ("CC(C)C[C@H](NC(=O)[C@@H](NC(=O)OCC1CCOC1)C(C)C)C(=O)N[C@@H](CS)C(=O)NCCc1ccc(C(=O)O)cc1Cl (stereo partly shown)", "IC50", "< 10 µM"),
    ("CC(C)COC(=O)N[C@@H](CCC(=O)O)C(=O)N[C@@H](CC(C)C)C(=O)N[C@@H](CS)C(=O)NCCc1ccc(C(=O)O)cc1Cl", "IC50", "< 1 µM"),
    ("CC(C)CC(NC(=O)C(CCC(=O)O)NC(=O)OC(C)(C)C)C(=O)NC(CC(F)F)C(=O)NCCc1ccccc1Cl (stereo not shown)", "IC50", "< 10 µM"),
]

Batch request: IC50 per item, same order as input.
1. CC(C)CC(NC(=O)C(CCC(=O)O)NC(=O)OC(C)(C)C)C(=O)NC(CS)C(=O)NCCc1ccccc1Cl (stereo not shown)
2. COc1cc(CCNC(=O)C(CS)NC(=O)C(CC(C)C)NC(=O)C(CCC(=O)O)NC(=O)OCC(C)C)ccc1O (stereo not shown)
3. CCOC(=O)/C=C/c1ccc(CCNC(=O)[C@H](CS)NC(=O)[C@H](CC(C)C)NC(=O)[C@H](CCC(=O)O)NC(=O)OCC(C)C)cc1

-- reply
1: < 10 µM; 2: < 100 µM; 3: < 10 µM
